Where these numbers come from: patent US11497752B2

# Test target: BRM (Homo sapiens, UniProt P51531)
# Sequence (P51531 whole entry): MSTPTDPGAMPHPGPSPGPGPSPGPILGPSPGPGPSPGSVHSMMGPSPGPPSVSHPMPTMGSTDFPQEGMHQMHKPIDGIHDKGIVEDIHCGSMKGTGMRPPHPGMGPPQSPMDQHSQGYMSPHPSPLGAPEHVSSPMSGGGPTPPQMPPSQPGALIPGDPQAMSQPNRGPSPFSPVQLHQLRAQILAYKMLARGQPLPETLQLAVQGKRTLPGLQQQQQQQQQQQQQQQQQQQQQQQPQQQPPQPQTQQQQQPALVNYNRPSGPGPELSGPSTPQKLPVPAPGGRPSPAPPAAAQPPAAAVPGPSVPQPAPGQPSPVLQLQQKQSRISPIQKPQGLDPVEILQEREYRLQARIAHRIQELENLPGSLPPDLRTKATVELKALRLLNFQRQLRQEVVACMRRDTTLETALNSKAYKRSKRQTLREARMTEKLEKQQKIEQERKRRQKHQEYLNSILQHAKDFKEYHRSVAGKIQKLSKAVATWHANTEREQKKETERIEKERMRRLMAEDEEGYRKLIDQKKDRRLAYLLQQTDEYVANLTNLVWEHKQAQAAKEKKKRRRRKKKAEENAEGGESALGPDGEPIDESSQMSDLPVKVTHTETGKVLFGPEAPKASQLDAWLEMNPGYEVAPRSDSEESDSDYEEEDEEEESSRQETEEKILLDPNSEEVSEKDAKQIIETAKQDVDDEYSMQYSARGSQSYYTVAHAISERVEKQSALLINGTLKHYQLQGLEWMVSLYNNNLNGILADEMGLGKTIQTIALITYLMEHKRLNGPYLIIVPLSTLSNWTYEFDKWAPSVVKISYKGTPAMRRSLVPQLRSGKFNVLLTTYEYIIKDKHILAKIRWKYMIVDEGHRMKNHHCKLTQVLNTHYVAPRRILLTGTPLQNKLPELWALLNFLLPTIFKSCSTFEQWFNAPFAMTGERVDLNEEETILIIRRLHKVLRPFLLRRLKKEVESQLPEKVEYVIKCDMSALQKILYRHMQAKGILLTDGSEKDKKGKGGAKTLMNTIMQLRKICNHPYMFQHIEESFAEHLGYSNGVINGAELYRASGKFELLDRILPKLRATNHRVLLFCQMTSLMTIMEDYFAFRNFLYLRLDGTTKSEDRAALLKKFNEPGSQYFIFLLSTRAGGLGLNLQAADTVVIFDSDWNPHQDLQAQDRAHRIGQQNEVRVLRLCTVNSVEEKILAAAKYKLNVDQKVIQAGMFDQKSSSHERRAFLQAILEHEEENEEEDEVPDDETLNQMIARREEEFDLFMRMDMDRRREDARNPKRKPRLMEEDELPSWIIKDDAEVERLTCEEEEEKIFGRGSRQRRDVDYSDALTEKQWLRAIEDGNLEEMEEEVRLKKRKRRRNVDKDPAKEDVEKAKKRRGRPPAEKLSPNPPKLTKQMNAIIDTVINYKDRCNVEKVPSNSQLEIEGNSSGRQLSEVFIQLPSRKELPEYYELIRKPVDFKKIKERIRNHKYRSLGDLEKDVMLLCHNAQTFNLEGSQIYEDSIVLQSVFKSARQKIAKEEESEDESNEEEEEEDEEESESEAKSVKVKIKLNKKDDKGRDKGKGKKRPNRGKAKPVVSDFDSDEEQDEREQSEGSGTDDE
# Test description: ATPase catalytic activity of BRM (ADP-Glo in vitro biochemical assay)
# Particulars: Table 5
BRM Max % Inhibition overview

The examples below pair each entry with its known result.
CN(C)S(=O)(=O)c1cccc(C(=O)NCC(=O)Nc2nc(-c3ccccc3)cs2)c1 : >80%
Cc1ccc(C(=O)NCC(=O)Nc2nc(-c3ccccc3)cs2)cc1S(C)(=O)=O : >70%
CC(=O)NCc1ccc(-c2csc(NC(=O)CNC(=O)c3cccc(S(=O)(=O)N(C)C)c3)n2)cc1 : >80%

Q: Entry `COC(=O)c1cccc(-c2csc(NC(=O)CNC(=O)c3cccc(S(=O)(=O)N(C)C)c3)n2)c1` has what BRM Max % Inhibition?
Ans: >90%

Q: Entry `CCC[C@H](NC(=O)c1cccc(S(=O)(=O)N(C)C)c1)C(=O)Nc1nc(-c2ccccc2)cs1` has what BRM Max % Inhibition?
Ans: >80%

Q: Entry `Cc1ccccc1-c1csc(NC(=O)CNC(=O)c2cccc(S(=O)(=O)N(C)C)c2)n1` has what BRM Max % Inhibition?
Ans: >80%

Q: Entry `CN(C)S(=O)(=O)c1cccc(C(=O)NCC(=O)Nc2nc(-c3cccc(CN)c3)cs2)c1` has what BRM Max % Inhibition?
Ans: >90%

====

BRG1 Max % Inhibition overview
# Test target: UniProtKB P51532
# Test description: ATPase catalytic activity of BRG-1 (ADP-Glo in vitro biochemical assay)
# Particulars: Table 6

The examples below pair each entry with its known result.
CSCC[C@H](NC(=O)c1ccc(N)cc1)C(=O)Nc1nc(-c2cccc(-c3ccnc(C)c3)c2)cs1 [Compound 214] : >95%
COC(=O)C(C)(C)n1ccc(-c2cccc(-c3csc(NC(=O)CNC(=O)c4ccc(N)cc4)n3)c2)n1 [Compound 209] : >95%
Nc1ccc(C(=O)NCC(=O)Nc2nc(-c3cccc(COc4ccncc4)c3)cs2)cc1 [Compound 197] : >80%
COc1cc(-c2cccc(-c3csc(NC(=O)CNC(=O)c4ccc(N)cn4)n3)c2)ccn1 [Compound 199] : >95%

Q: Entry Nc1ccc(C(=O)NCC(=O)Nc2nc(-c3cccc(-c4ccncc4)c3)cs2)nc1 [Compound 184] has what BRG1 Max % Inhibition?
Ans: >70%

Q: Entry Nc1ccc(C(=O)NCC(=O)Nc2nc(-c3cccc(-c4cccc(C(=O)O)c4)c3)cs2)cc1 [Compound 136] has what BRG1 Max % Inhibition?
Ans: >95%

Q: Entry CNC(=O)Cc1cc(-c2cccc(-c3csc(NC(=O)CNC(=O)c4ccc(N)cc4)n3)c2)ccn1 [Compound 205] has what BRG1 Max % Inhibition?
Ans: >95%

====

BRG1 Max % Inhibition overview
# Test target: BRG-1 (Homo sapiens, UniProt P51532)
# Sequence (P51532 whole entry): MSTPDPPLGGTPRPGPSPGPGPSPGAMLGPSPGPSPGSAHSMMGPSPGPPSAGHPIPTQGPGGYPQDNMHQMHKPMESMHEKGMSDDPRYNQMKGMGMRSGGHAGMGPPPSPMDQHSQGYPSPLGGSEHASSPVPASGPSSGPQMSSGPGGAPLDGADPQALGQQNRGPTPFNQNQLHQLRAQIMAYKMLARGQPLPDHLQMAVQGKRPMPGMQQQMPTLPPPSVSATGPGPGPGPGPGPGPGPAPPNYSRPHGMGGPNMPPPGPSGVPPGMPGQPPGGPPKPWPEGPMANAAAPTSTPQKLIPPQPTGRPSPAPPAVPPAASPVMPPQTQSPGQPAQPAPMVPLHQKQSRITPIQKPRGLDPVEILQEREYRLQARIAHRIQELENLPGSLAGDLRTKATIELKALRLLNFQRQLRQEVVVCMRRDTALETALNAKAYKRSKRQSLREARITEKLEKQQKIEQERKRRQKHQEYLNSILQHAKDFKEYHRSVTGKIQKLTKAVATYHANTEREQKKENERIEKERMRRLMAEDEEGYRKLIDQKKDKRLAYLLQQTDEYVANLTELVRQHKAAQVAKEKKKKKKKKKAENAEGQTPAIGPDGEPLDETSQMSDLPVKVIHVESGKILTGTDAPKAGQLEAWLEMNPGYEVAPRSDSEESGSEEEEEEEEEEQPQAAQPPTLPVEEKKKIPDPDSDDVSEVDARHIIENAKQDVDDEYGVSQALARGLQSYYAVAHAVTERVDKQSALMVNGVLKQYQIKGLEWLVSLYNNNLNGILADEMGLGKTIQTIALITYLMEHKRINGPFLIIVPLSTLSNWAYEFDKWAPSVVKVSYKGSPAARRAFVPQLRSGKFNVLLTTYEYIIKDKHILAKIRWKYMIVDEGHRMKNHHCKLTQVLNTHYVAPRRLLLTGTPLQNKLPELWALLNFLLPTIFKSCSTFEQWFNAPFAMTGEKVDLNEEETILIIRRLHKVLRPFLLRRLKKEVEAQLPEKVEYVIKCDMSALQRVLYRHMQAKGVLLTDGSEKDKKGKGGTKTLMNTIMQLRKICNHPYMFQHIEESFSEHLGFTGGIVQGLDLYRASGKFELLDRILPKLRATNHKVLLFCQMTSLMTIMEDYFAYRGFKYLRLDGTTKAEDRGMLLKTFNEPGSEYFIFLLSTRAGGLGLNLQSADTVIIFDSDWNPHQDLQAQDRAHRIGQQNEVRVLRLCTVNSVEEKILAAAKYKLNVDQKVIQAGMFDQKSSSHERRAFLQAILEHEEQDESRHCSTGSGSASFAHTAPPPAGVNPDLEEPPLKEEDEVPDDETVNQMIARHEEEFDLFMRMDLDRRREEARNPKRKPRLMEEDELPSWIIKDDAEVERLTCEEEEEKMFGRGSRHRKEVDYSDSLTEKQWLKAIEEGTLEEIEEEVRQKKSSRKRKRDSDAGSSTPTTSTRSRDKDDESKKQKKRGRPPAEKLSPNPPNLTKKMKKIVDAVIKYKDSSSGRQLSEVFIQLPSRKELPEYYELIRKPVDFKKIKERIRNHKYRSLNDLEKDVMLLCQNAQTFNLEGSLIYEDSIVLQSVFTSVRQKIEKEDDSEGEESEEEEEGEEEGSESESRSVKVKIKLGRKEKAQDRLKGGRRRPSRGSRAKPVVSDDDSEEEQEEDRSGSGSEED
# Test description: ATPase catalytic activity of BRG-1 (ADP-Glo in vitro biochemical assay)
# Particulars: Table 5

CC(=O)NCc1ccc(-c2csc(NC(=O)CNC(=O)c3cccc(S(=O)(=O)N(C)C)c3)n2)cc1 : >70%

Q: Entry `CN(C)S(=O)(=O)c1cccc(C(=O)NCC(=O)Nc2nc(-c3cccc(C#N)c3)cs2)c1` has what BRG1 Max % Inhibition?
Ans: >70%

Q: Entry `COC(=O)c1cccc(-c2csc(NC(=O)CNC(=O)c3cccc(S(=O)(=O)N(C)C)c3)n2)c1` has what BRG1 Max % Inhibition?
Ans: >60%

Q: Entry `CSCC[C@H](NC(=O)c1cccc(S(=O)(=O)C(C)C)c1)C(=O)Nc1nc(-c2ccccc2)cs1` has what BRG1 Max % Inhibition?
Ans: >60%
